Readings of melting point for the listed compounds

Known melting point results, listed for orientation:
In [3]: df
Out[3]:
                                   compound  endpoint_value
0  c1ccc(C(=C2CCN(CCN3CCNCC3)CC2)c2ccccc2)cc1     73 to 75 °C
1  COc1c(O)c([N+](=O)[O-])cc(C(=O)c2ccccc2)c1Cl   143 to 145 °C
2  COc1ccc(C(=O)N2CCC(N3C(=O)Cc4ccccc43)CC2)c(OC)c1     88 to 93 °C
3  NS(=O)(=O)c1ccc(-c2noc(-c3cnc4c(C(F)(F)F)cc(-c5ccc(C(F)(F)F)cc5)cn34)n2)cc1          292 °C
4  Cc1cccc(-c2ccc3c(c2)c(CC(=O)O)cn3Cc2ccc(C(C)(C)C)cc2)c1     91 to 92 °C
5  CC(=O)Nc1c(C(=S)c2ccc(C)cc2)[nH]c2cc(Cl)ccc12   187 to 188 °C
6      CCCCCCCCOc1cc(O)c2c(=O)c3ccccc3oc2c1           98 °C
7  CCOc1c([C@@H]2C[C@@H]2/C=C/C(C)=C/C(=O)O)cc(C(C)(C)C)cc1C(C)(C)C (racemic)   169 to 174 °C
8                O=C(O)CCCCCCCCc1ccc(Cl)cc1     73 to 75 °C
9  C=CCc1c2c(cc3c(=O)cc(C(=O)OCC)oc13)CCCC2    98 to 101 °C

Inquiry: I am curious: what melting point value has been reported for `COc1ccccc1CN1Cc2c(-c3ccccc3)c3cc(C)c(C)cc3c(=O)n2CC1=O` ?
Reply text: 211 to 214 °C

Inquiry: Try this compound next: `COc1ccc2cc(C(=O)Oc3ccc(Cl)cn3)c(=O)oc2c1`
Reply text: 248 to 250 °C

Inquiry: Try this compound next: `N#Cc1ccc2c(c1)CCc1nn(-c3ccccn3)c(O)c1-2`
Reply text: 232 to 233 °C

Inquiry: Try this compound next: O=C1c2ccccc2N=C(c2ccccc2)C1O (centres undefined)
Reply text: 260 to 262 °C

Inquiry: Try this compound next: `Cc1cc(C)c(-n2c(C)c(C)c3c(C#N)nc(C)nc32)c(C)c1`
Reply text: 188 to 190 °C

Inquiry: Try this compound next: `CC1(C)COP(=O)(Cc2ccc(N)cc2)OC1`
Reply text: 152 to 153 °C
